Tested on: NCI-H2347
Assay: relative viability (nuclei count vs DMSO), 5 days (fraction); higher = more cells survive
Conditions: first compound 0.5 µM
Assign relative viability to each entry below.
Answers are plain numbers.

COc1cc2nccc(Oc3ccc(NC(=O)Nc4cc(C)on4)c(Cl)c3)c2cc1OC [Tivozanib] + COc1cc2c(Oc3ccc(NC(=O)C4(C(=O)Nc5ccc(F)cc5)CC4)cc3F)ccnc2cc1OCCCN1CCOCC1 [Foretinib] (partner 0.25 µM): 0.845
COc1cc2nccc(Oc3ccc(NC(=O)Nc4cc(C)on4)c(Cl)c3)c2cc1OC [Tivozanib] + N=C(N)NC(=N)NCCc1ccccc1 [Phenformin] (partner 250 µM): 0.438

# context switch: different compound, same relative viability
// COc1cc2nccc(Oc3ccc(NC(=O)Nc4cc(C)on4)c(Cl)c3)c2cc1OC [Tivozanib] + O=C(c1cc(Cc2n[nH]c(=O)c3ccccc23)ccc1F)N1CCN(C(=O)C2CC2)CC1 [Olaparib] (partner 8 µM) : relative viability value = 0.512

----------
Tested on: LU99A
Assay: relative viability (nuclei count vs DMSO), 5 days (fraction); higher = more cells survive
Details: first compound 1.265 µM
Kindly supply the reported relative viability values for the records listed here.
Answers are plain numbers.

Cc1sc2c(c1C)C(c1ccc(Cl)cc1)=N[C@@H](CC(=O)OC(C)(C)C)c1nnc(C)n1-2 [JQ1] + C[C@]1(O)C[C@@H](c2nc(-c3ccc4ccc(-c5ccccc5)nc4c3)c3c(N)nccn32)C1 [Linsitinib] (partner 1 µM): 0.292
Cc1sc2c(c1C)C(c1ccc(Cl)cc1)=N[C@@H](CC(=O)OC(C)(C)C)c1nnc(C)n1-2 [JQ1] + Nc1ncn([C@H]2C[C@H](O)[C@@H](CO)O2)c(=O)n1 [Decitabine] (partner 2 µM): 0.293
Cc1sc2c(c1C)C(c1ccc(Cl)cc1)=N[C@@H](CC(=O)OC(C)(C)C)c1nnc(C)n1-2 [JQ1] + O=C(c1cc(Cc2n[nH]c(=O)c3ccccc23)ccc1F)N1CCN(C(=O)C2CC2)CC1 [Olaparib] (partner 8 µM): 0.114

relative viability recorded for this compound, Cc1sc2c(c1C)C(c1ccc(Cl)cc1)=N[C@@H](CC(=O)OC(C)(C)C)c1nnc(C)n1-2 [JQ1] + CS(=O)(=O)N1CCN(Cc2cc3nc(-c4cccc5[nH]ncc45)nc(N4CCOCC4)c3s2)CC1 [Pictilisib] (partner 1 µM) , is 0.201

----------
System: NCI-H2228
Assay: relative viability (nuclei count vs DMSO), 5 days (fraction); higher = more cells survive
Details: first compound 0.1581 µM
Assignment: determine reported relative viability for the given compounds.
One number for each entry.

Observe how each entry below is paired with its result.
COc1cc2nccc(Oc3ccc(NC(=O)Nc4cc(C)on4)c(Cl)c3)c2cc1OC [Tivozanib] + CC(=O)c1c(C)c2cnc(Nc3ccc(N4CCNCC4)cn3)nc2n(C2CCCC2)c1=O [Palbociclib] (partner 0.5 µM): 0.321
Nc1ccn([C@@H]2O[C@H](CO)[C@@H](O)[C@@H]2O)c(=O)n1 [Cytarabine] + COc1cccc2cc(-c3nc([C@H]4CC[C@H](C(=O)O)CC4)n4ncnc(N)c34)[nH]c12 [OSI-027] (partner 0.5 µM): 0.097

The compound identified as COc1cc2nccc(Oc3ccc(NC(=O)Nc4cc(C)on4)c(Cl)c3)c2cc1OC [Tivozanib] + CCNC(=O)c1noc(-c2cc(C(C)C)c(O)cc2O)c1-c1ccc(CN2CCOCC2)cc1 [Luminespib] (partner 0.01 µM) registered its relative viability at 0.185

----------
Test system: NCI-H661
Test: relative viability (nuclei count vs DMSO), 5 days (fraction); higher = more cells survive
Details: first compound 15.81 µM
Provide the recorded relative viability for the entries that follow.
One number for each entry.

These recorded examples may help you get a feel for the data.
O=C(O)CCCCC(CCSCc1ccccc1)SCc1ccccc1 (stereo not drawn) [CPI-613] + C[C@@H](Oc1cc(-c2cnn(C3CCNCC3)c2)cnc1N)c1c(Cl)ccc(F)c1Cl [Crizotinib] (partner 1 µM): 1.03
O=C(O)CCCCC(CCSCc1ccccc1)SCc1ccccc1 (stereo not drawn) [CPI-613] + C[C@]1(O)C[C@@H](c2nc(-c3ccc4ccc(-c5ccccc5)nc4c3)c3c(N)nccn32)C1 [Linsitinib] (partner 1 µM): 0.458

Please turn your attention to the following entry.
O=C(O)CCCCC(CCSCc1ccccc1)SCc1ccccc1 (stereo not drawn) [CPI-613] + CS(=O)(=O)N1CCN(Cc2cc3nc(-c4cccc5[nH]ncc45)nc(N4CCOCC4)c3s2)CC1 [Pictilisib] (partner 1 µM) has a reported relative viability of 0.428

----------
System: NCI-H2342
Experiment: relative viability (nuclei count vs DMSO), 5 days (fraction); higher = more cells survive
Conditions: first compound 0.253 µM
ENDPOINT: relative viability
Give bare numbers.

Answered examples (3):
O=c1[nH]c2ccccc2n1C1CCN(CCCC(c2ccc(F)cc2)c2ccc(F)cc2)CC1 [Pimozide] + Cc1nc(Nc2ncc(C(=O)Nc3c(C)cccc3Cl)s2)cc(N2CCN(CCO)CC2)n1 [Dasatinib] (partner 0.075 µM): 0.337
Cc1cnc(-c2cnc(NCCNc3ccc(C#N)cn3)nc2-c2ccc(Cl)cc2Cl)[nH]1 + NC(=O)Nc1cc(-c2cccc(F)c2)sc1C(=O)N[C@H]1CCCNC1 [AZD7762] (partner 0.2 µM): 0.473
Cc1cnc(-c2cnc(NCCNc3ccc(C#N)cn3)nc2-c2ccc(Cl)cc2Cl)[nH]1 + CCNC(=O)c1noc(-c2cc(C(C)C)c(O)cc2O)c1-c1ccc(CN2CCOCC2)cc1 [Luminespib] (partner 0.01 µM): 0.654

Now for a further molecule.
GET /value?item= Cc1cnc(-c2cnc(NCCNc3ccc(C#N)cn3)nc2-c2ccc(Cl)cc2Cl)[nH]1 + Cc1nc(Nc2ncc(C(=O)Nc3c(C)cccc3Cl)s2)cc(N2CCN(CCO)CC2)n1 [Dasatinib] (partner 0.075 µM) &field=relative viability returns 0.321

----------
Test system: HCC-78
Assay: relative viability (nuclei count vs DMSO), 5 days (fraction); higher = more cells survive
Settings: first compound 500 µM
ENDPOINT: relative viability

O=C(O)CCCCC(CCSCc1ccccc1)SCc1ccccc1 (centres undefined) [CPI-613] + Cc1cc(Nc2cc(N3CCN(C)CC3)nc(Sc3ccc(NC(=O)C4CC4)cc3)n2)n[nH]1 [Tozasertib] (partner 0.1 µM): 0.405
O=C(O)CCCCC(CCSCc1ccccc1)SCc1ccccc1 (centres undefined) [CPI-613] + CC1(C)CCC(c2ccc(Cl)cc2)=C(CN2CCN(c3ccc(C(=O)NS(=O)(=O)c4ccc(N[C@H](CCN5CCOCC5)CSc5ccccc5)c(S(=O)(=O)C(F)(F)F)c4)cc3)CC2)C1 [Navitoclax] (partner 0.5 µM): 0.876
O=C(O)CCCCC(CCSCc1ccccc1)SCc1ccccc1 (centres undefined) [CPI-613] + O=C(CCCCCCC(=O)Nc1ccccc1)NO [Vorinostat] (partner 1 µM): 0.479

Reported relative viability for O=C(O)CCCCC(CCSCc1ccccc1)SCc1ccccc1 (centres undefined) [CPI-613] + Nc1ncn([C@H]2C[C@H](O)[C@@H](CO)O2)c(=O)n1 [Decitabine] (partner 2 µM) was 0.742

----------
Test system: HCC-78
Test: relative viability (nuclei count vs DMSO), 5 days (fraction); higher = more cells survive
Conditions: first compound 0.5 µM
Hi! Just check whether relative viability is below 0.4. Below gives t, equal or above gives f.

COc1cc2nccc(Oc3ccc(NC(=O)Nc4cc(C)on4)c(Cl)c3)c2cc1OC [Tivozanib] + COc1cccc2cc(-c3nc([C@H]4CC[C@H](C(=O)O)CC4)n4ncnc(N)c34)[nH]c12 [OSI-027] (partner 0.5 µM): t

## Input Dear colleague, could you confirm whether relative viability of Nc1ccn([C@@H]2O[C@H](CO)[C@@H](O)[C@@H]2O)c(=O)n1 [Cytarabine] + COc1cc2c(Oc3ccc(NC(=O)C4(C(=O)Nc5ccc(F)cc5)CC4)cc3F)ccnc2cc1OCCCN1CCOCC1 [Foretinib] (partner 0.25 µM) falls below 0.4? Thanks.
## Output t

## Input Record COc1cc2nccc(Oc3ccc(NC(=O)Nc4cc(C)on4)c(Cl)c3)c2cc1OC [Tivozanib] + COc1cc2c(Oc3ccc(NC(=O)C4(C(=O)Nc5ccc(F)cc5)CC4)cc3F)ccnc2cc1OCCCN1CCOCC1 [Foretinib] (partner 0.25 µM) : is its relative viability strictly below 0.4?
## Output f

## Input Bench note: check whether COc1cc2nccc(Oc3ccc(NC(=O)Nc4cc(C)on4)c(Cl)c3)c2cc1OC [Tivozanib] + C[C@@H](Oc1cc(-c2cnn(C3CCNCC3)c2)cnc1N)c1c(Cl)ccc(F)c1Cl [Crizotinib] (partner 1 µM) shows relative viability below 0.4
## Output t

## Input Hello, is relative viability of the following compound strictly smaller than 0.4? Nc1ccn([C@@H]2O[C@H](CO)[C@@H](O)[C@@H]2O)c(=O)n1 [Cytarabine] + Cc1nc(NC(=O)N2CCC[C@H]2C(N)=O)sc1-c1ccnc(C(C)(C)C(F)(F)F)c1 [Alpelisib] (partner 2 µM)
## Output t
